B1: Pistol ribozyme (parent)
chain: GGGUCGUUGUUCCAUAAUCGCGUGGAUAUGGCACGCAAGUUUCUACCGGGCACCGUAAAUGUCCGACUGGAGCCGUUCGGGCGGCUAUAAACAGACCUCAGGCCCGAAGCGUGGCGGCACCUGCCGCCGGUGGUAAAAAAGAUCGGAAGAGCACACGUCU

- Variants of: B1
- Method description: aptazyme ON/OFF ratio, guanine; higher = stronger switching; co-transcriptional cleavage with and without guanine
Measurement type: aptazyme ON/OFF ratio
Answer with the value's number alone.

Field: example entries. Status: answers known.
>  <Variant>
U7A U8C G9C U10C U11G C12G

>  <aptazyme ON/OFF ratio>
1.08

$$$$
>  <Variant>
U7G U8A G9U U10C U11G C12G C13U

>  <aptazyme ON/OFF ratio>
1.02

$$$$
>  <Variant>
U8G G9A U11G C12U

>  <aptazyme ON/OFF ratio>
1.34

$$$$
>  <Variant>
U8C G9C U10G C13A

>  <aptazyme ON/OFF ratio>
1.1

$$$$
>  <Variant>
U7C U8A G9C U10C U11C C12A C13A

>  <aptazyme ON/OFF ratio>
1.04

$$$$

Prompt: I would be grateful if you could share the reported aptazyme ON/OFF ratio for U10A U11A C12U .
Response: 1.64

Prompt: I would be grateful if you could share the reported aptazyme ON/OFF ratio for U7G U8G G9U U11A C13A .
Response: 1.33

Prompt: I would be grateful if you could share the reported aptazyme ON/OFF ratio for U7C U8C C12U .
Response: 1.75
